Test system: A549
protocol.details: MTT cytotoxicity assay, A549
Format: cell-based, human
run.conditions: CC50 VERO vs EC50 A549
Selectivity index (SI): folds toxicity in A549 than in VERO cells listing for selected compounds.
property.label: Selectivity index (SI): folds toxicity in A549 than in VERO cells (folds)

>>> recorded_value("CCCn1c(=O)n(CC(=O)Nc2ccc(-c3nnc(S)o3)cc2)c(=O)c2cc(I)ccc21")
7.57
>>> recorded_value("CCn1c(=O)n(CC(=O)Nc2ccc(C(=O)NN=Cc3ccc(OC)cc3)cc2)c(=O)c2cc(I)ccc21")
10.48
>>> recorded_value("CCCn1c(=O)n(CC(=O)Nc2ccc(C(=O)OCC)cc2)c(=O)c2cc(I)ccc21")
6.98
